# Tested on: Plasmodium falciparum
# experiment.summary: Antimalarial activity: Asexual Blood Stage Plasmodium falciparum 3D7 IC50 (uM)
# Format: functional, organism-based
endpoint.label: log10(IC50) (log10 of the value in nM)

In [3]: df
Out[3]:
                                   molecule                    tgt  reported_measurement
0  CCc1cc(=O)n(C)c(SC(C)C(=O)Nc2ccc(F)cc2)n1 (stereo not given)  Plasmodium falciparum                  3.29
1  Nc1ncc(-c2cn[nH]c2)cc1-c1nc2cc(Cl)cnc2[nH]1  Plasmodium falciparum                  2.60
2  CCCS(=O)(=O)N1CCC(CO)(Cc2ccccc2C(F)(F)F)CC1  Plasmodium falciparum                  3.04
3  O=C(NC1CC1)c1ccc(N2CCC(Cc3ccccc3)CC2)nc1  Plasmodium falciparum                  3.12
4  Cc1ccc(-c2cc(C(=O)Nc3cccnc3)c3cc(Br)ccc3n2)cc1  Plasmodium falciparum                  2.00
5         O=C(NC1CC1)c1ccc(CSCc2ccccc2Cl)o1  Plasmodium falciparum                  3.15
6  Cc1ccc(S(=O)(=O)n2cc(-c3ccnc(N)c3)c3cc(Br)cnc32)cc1  Plasmodium falciparum                  2.80
7  COc1cc(-c2cc(-c3ccc(S(C)(=O)=O)cc3)cnc2N)ccc1O  Plasmodium falciparum                  2.00
8  CO/C=C(/C(=O)OC)c1ccccc1Oc1cc(Oc2ccccc2C#N)ncn1  Plasmodium falciparum                  1.70
9  O=C(Nc1cccc(-c2ccc(NCCCN3CCCC3)nc2)c1)c1ccccc1  Plasmodium falciparum                  2.93
